The reader will find reported pKd values listed item by item below.
molecular target: XynR (Anaerocellum (f. Caldicellulosiruptor) bescii) (UniProt B9MPD1); assay: fluorescence polarization; settings: 20 mM Tris-HCl, 100 mM NaCl, 0.02% Tween 20, pH 7.4; FP: 5 nM probe, 30 nM-3 uM protein, 22 C; BLI: 100 nM DNA immobilized on streptavidin sensors
pKd: −log10 of the molar value.

[
  {
    "SEQ_TEXT": "ATTTTCATGAAATCGCTTTCCTATCTAA / TTAGATAGGAAAGCGATTTCATGAAAATA [xynMNC FP probe]",
    "pKd": 6.82
  },
  {
    "SEQ_TEXT": "TAATAATCGAAATCGCTTACAATTCCTG (double strand) [xynR-xylB FP probe]",
    "pKd": 6.76
  },
  {
    "SEQ_TEXT": "ATTGACTAGTAAACGCTTACGATATATT (double strand) [XDL FP probe]",
    "pKd": 6.79
  },
  {
    "SEQ_TEXT": "TGAGGTTAGAAAGCGGTTTCAAGCAATT (double strand) [xyl3A FP probe]",
    "pKd": 6.77
  }
]
